System: Ctenocephalides felis
assay_details: Ctenocephalides felis test (CTECFE), blood feeding
Assay type: in vivo
measurement_context: application rate of 100 ppm in cattle blood; adult unfed fleas; after 2 days
experimental_endpoint: activity (mortality in %)

>>> df
                                    compound      experimental_endpoint  observed_result
 0  Cc1cc(C(n2cc(C(F)(F)F)cn2)(C(F)(F)F)C(F)(F)F)cc(C)c1NC(=O)c1cccc(NC(=O)c2cccnc2Cl)c1 [2-109]  activity (mortality in %)             100%
 1  CCc1cc(C(n2cc(Br)cn2)C(F)(F)F)cc(C)c1NC(=O)c1cccc(NC(=O)c2cccnc2Cl)c1 (stereo not shown) [2-77]  activity (mortality in %)              90%
 2  CCOC(c1cc(I)c(NC(=O)c2cccc(NC(=O)c3cccc(F)c3)c2)c(I)c1)(C(F)(F)F)C(F)(F)F [1-27]  activity (mortality in %)              90%
 3  CCOC(c1cc(I)c(NC(=O)c2cccc(NC(=O)c3cccnc3F)c2)c(I)c1)(C(F)(F)F)C(F)(F)F [1-59]  activity (mortality in %)              95%
 4  CCOC(c1cc(I)c(NC(=O)c2cccc(NC(=O)c3ccccc3)c2)c(I)c1)(C(F)(F)F)C(F)(F)F [1-25]  activity (mortality in %)              90%
 5  C#CCOC(c1cc(I)c(NC(=O)c2cccc(NC(=O)c3cccnc3Cl)c2)c(I)c1)(C(F)(F)F)C(F)(F)F [1-80]  activity (mortality in %)              80%
 6  Cc1cc(C(n2cncn2)(C(F)(F)F)C(F)(F)F)cc(Br)c1NC(=O)c1cccc(NC(=O)c2ccccc2F)c1 [2-151]  activity (mortality in %)              90%
 7  CCOC(c1cc(I)c(NC(=O)c2cccc(NC(=O)c3ccc(Cl)nc3)c2)c(I)c1)(C(F)(F)F)C(F)(F)F [1-60]  activity (mortality in %)             100%
 8  Cc1cc(C(n2cc(C(F)(F)F)cn2)C(F)(F)C(F)(F)F)cc(C)c1NC(=O)c1cccc(NC(=O)c2cccnc2Cl)c1 (stereo not shown) [2-104]  activity (mortality in %)             100%
 9  Cc1cc(C(n2cc(Br)cn2)(C(F)(F)F)C(F)(F)F)cc(C)c1NC(=O)c1cccc(NC(=O)c2cccnc2Cl)c1 [2-84]  activity (mortality in %)              95%
10  CCOC(c1cc(I)c(NC(=O)c2cccc(NC(=O)c3cccnc3Cl)c2)c(I)c1)(C(F)(F)F)C(F)(F)F [1-40]  activity (mortality in %)              90%
11  Cc1cc(C(n2cc(C(F)(F)F)cn2)C(F)(F)F)cc(C)c1NC(=O)c1cccc(NC(=O)c2cccnc2F)c1 (stereo not shown) [2-103]  activity (mortality in %)              95%
12  Cc1cc(C(n2cc(Cl)cn2)(C(F)(F)F)C(F)(F)F)cc(C)c1NC(=O)c1cccc(NC(=O)c2cccnc2Cl)c1 [2-51]  activity (mortality in %)             100%
13  CCOC(c1cc(I)c(NC(=O)c2cccc(NC(=O)c3ccccc3F)c2)c(I)c1)(C(F)(F)F)C(F)(F)F [1-26]  activity (mortality in %)             100%
14  Cc1cc(C(n2cc(C(F)(F)F)cn2)(C(F)(F)F)C(F)(F)F)cc(C)c1NC(=O)c1cccc(NC(=O)c2cccnc2F)c1 [2-108]  activity (mortality in %)             100%
15  Cc1cc(C(n2cncn2)(C(F)(F)F)C(F)(F)F)cc(C)c1NC(=O)c1cccc(NC(=O)c2cccnc2Cl)c1 [2-148]  activity (mortality in %)              95%
